# ASSAY_TEXT: Inhibition of LCK in human peripheral T cells assessed as suppression of TCR-dependant cell proliferation
pIC50: −log10 of the molar value.

{"SUBSTANCE_SMILES": "Cc1c(-c2c(F)cc(C(N)=O)c3[nH]c4c(c23)CC[C@H](C(C)(C)O)C4)cccc1-n1c(=O)c2cccc(F)c2n(C)c1=O", "pIC50": 5.42}

Every entry's value here was drawn from BindingDB's records for doi:10.1021/acs.jmedchem.6b01088.
